assay: Antioxidant activity assessed as reducing power of ferric ion at 100 ug/ml after 20 mins; assay type: functional; design: scale not given: the % may be the effect or the level left
value-type: Activity (%)
Expressed in %, but write only the number.

INSERT INTO measurements (molecule, value_type, result_number) VALUES
  ('N/C(=N\O)C1CC(c2ccccc2)=NN1c1ccccc1 (stereo unspecified)', 'Activity', 56),
  ('Oc1ccc(C2=NN(c3ccccc3)C(c3noc(-c4ccc(Cl)cc4)n3)C2)cc1 (stereo unspecified)', 'Activity', 76),
  ('c1ccc(-c2cc(-c3noc(-c4ccccc4)n3)n(-c3ccccc3)n2)cc1', 'Activity', 65),
  ('COc1ccc(C2=NN(c3ccccc3)C(c3noc(-c4ccccc4OC)n3)C2)cc1 (stereo unspecified)', 'Activity', 65),
  ('O=C1O[C@H]([C@@H](O)CO)C(O)=C1O', 'Activity', 82);

# evaluate next
Challenge: Give the measured Activity of COc1ccc(-c2nc(C3CC(c4ccccc4)=NN3c3ccccc3)no2)cc1OC (stereo unspecified) .
Response given: 68
